Test system: T-47D
Assay: Caspase cascade activation in T-47D cells (N-(Ac-DEVD)-N'-ethoxycarbonyl-R110 fluorogenic substrate)
Assay type: cell-based
Settings: T-47D human breast cancer cells, 24 h incubation; sigmoidal dose-response
pEC50: −log10 of the molar value.
outcome.measure: pEC50

# compound, pEC50
measured = [
    ("COC=NC1=C(C#N)C(c2cc(Br)c(OC)c(OC)c2)c2ccc3ocnc3c2O1 (stereo not drawn)", 7.33),
]

(1) COc1cc(C2C(C#N)=C(N)Oc3c2ccc2oc(=O)[nH]c32)cc(Br)c1OC (stereo not drawn)
(2) COc1cc(C2C(C#N)=C(N)Oc3c2ccc2ocnc32)cc(Br)c1OC (stereo not drawn)
(3) COc1cc(C2C(C#N)=C(N)Oc3c2ccc2c3oc(=O)n2C)cc(Br)c1OC (stereo not drawn)
(4) COc1cc(C2C(C#N)=C(N)Oc3c2ccc2[nH]c(=O)oc32)cc(Br)c1OC (stereo not drawn)
(5) COc1cc(C2C(C#N)=C(N)Oc3c2ccc2ncoc32)cc(Br)c1OC (stereo not drawn)
Prompt: hey, can you rank those compounds up there by pEC50? biggest number first please Write the labels in rank order as requested.
Completion: 3, 2, 5, 4, 1
